- System: SF-539 CNS
- ASSAY COMMENT: NCI-60 one-dose screen, 48 h (100 = growth as untreated, 0 = no growth, -100 = all killed)
- CONDITION LABEL: 10 µM
Compounds without any hit were thinned out: in the full panel of roughly 83,000, 20% have a hit.
Quick list: growth per entry.
Respond with the bare value in %.

Answered examples (2):
1) CS(=O)(=O)c1nccc(-c2c(-c3ccc(OCCc4ccccc4)cc3)nc3sccn23)n1    85.5
2) CN(C)c1ccc(/C=N/NC(=O)c2cccc3ccccc23)c(Cl)c1    19.9

## Task Record CCCCc1oc2ccccc2c1C(=O)c1cc(I)c(OCCN(CC)CC)c(I)c1 : what is its growth with SF-539 CNS?
## Result -19

## Task Record CCOC(=O)CSc1nc(-c2cc(OC)ccc2OC)cc(-c2ccc(OC)cc2)c1C#N : what is its growth with SF-539 CNS?
## Result 64.6

## Task Record CC(=O)[C@@]12O[C@](C)(c3ccccc3)O[C@@H]1CC1C3CCC4=CC(=O)CC[C@]4(C)C3CC[C@@]12C (some centres not stated) : what is its growth with SF-539 CNS?
## Result 91.6

## Task Record O=[N+]([O-])c1ccc(NCSc2ccc(Cl)cc2)cc1 : what is its growth with SF-539 CNS?
## Result 99.7

## Task Record COc1cc2c(cc1OC)C(C(CCCCCC(CCC(C)C)C1NCCc3cc(OC)c(OC)cc31)CCC(C)C)NCC2 (configuration not stated) : what is its growth with SF-539 CNS?
## Result -97.4

## Task Record COc1ccc(NC(=O)C2CC3C=CC2C3)c([N+](=O)[O-])c1 (configuration not stated) : what is its growth with SF-539 CNS?
## Result 98.6

## Task Record CCn1c(SC/C(=N/O)c2ccccc2)nnc1-c1ccccc1 : what is its growth with SF-539 CNS?
## Result 93.7

## Task Record COc1cc(-c2nn(-c3cccc(NC(=O)NCCNS(=O)(=O)c4ccc(Cl)cc4)c3)cc2-c2ccncc2)ccc1Cl : what is its growth with SF-539 CNS?
## Result -38.5
